B1: MAGEA6 (parent)
chain: KISGGPRISYPLLHEWALREGEE

Variants of: B1
protocol.description: protein stability index of a GFP-peptide fusion (GPS, HEK-293T) (PSI 1-6); higher = more stable;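 also: lentivirally expressed fusions sorted by FACS into six bins by GFP to DsRed ratio, PSI derived from sequencing read proportions per bin multiplied by bin number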
reported.conditions: c terminus: native
Rule: protein stability index of 3 or more gives Condition met; anything lower gives Condition not met.

**Q:** State whether the measured protein stability index reaches 3, counting equality as reaching it, for E22G
**A:** Condition not met

**Q:** State whether the measured protein stability index reaches 3, counting equality as reaching it, for I8C
**A:** Condition not met

**Q:** State whether the measured protein stability index reaches 3, counting equality as reaching it, for P11H
**A:** Condition not met

**Q:** State whether the measured protein stability index reaches 3, counting equality as reaching it, for G21K
**A:** Condition met

**Q:** State whether the measured protein stability index reaches 3, counting equality as reaching it, for L13Y
**A:** Condition not met

**Q:** State whether the measured protein stability index reaches 3, counting equality as reaching it, for K1N
**A:** Condition not met

**Q:** State whether the measured protein stability index reaches 3, counting equality as reaching it, for A17E
**A:** Condition met

**Q:** State whether the measured protein stability index reaches 3, counting equality as reaching it, for L18E
**A:** Condition met

**Q:** State whether the measured protein stability index reaches 3, counting equality as reaching it, for P6R
**A:** Condition met

**Q:** State whether the measured protein stability index reaches 3, counting equality as reaching it, for R7I
**A:** Condition met

**Q:** State whether the measured protein stability index reaches 3, counting equality as reaching it, for L12G
**A:** Condition met

**Q:** State whether the measured protein stability index reaches 3, counting equality as reaching it, for L18Q
**A:** Condition not met

**Q:** State whether the measured protein stability index reaches 3, counting equality as reaching it, for Y10K
**A:** Condition met

**Q:** State whether the measured protein stability index reaches 3, counting equality as reaching it, for I8G
**A:** Condition met

**Q:** State whether the measured protein stability index reaches 3, counting equality as reaching it, for P11V
**A:** Condition not met

**Q:** State whether the measured protein stability index reaches 3, counting equality as reaching it, for P6N
**A:** Condition met

**Q:** State whether the measured protein stability index reaches 3, counting equality as reaching it, for E22C
**A:** Condition not met

**Q:** State whether the measured protein stability index reaches 3, counting equality as reaching it, for A17P
**A:** Condition not met

**Q:** State whether the measured protein stability index reaches 3, counting equality as reaching it, for W16L
**A:** Condition met

**Q:** State whether the measured protein stability index reaches 3, counting equality as reaching it, for E23Q
**A:** Condition not met

**Q:** State whether the measured protein stability index reaches 3, counting equality as reaching it, for P11R
**A:** Condition met
